Biological target: 17β-HSD1 (Homo sapiens)
Construct: endogenous in cells; host or cells: T-47D
Sequence (P14061 1-328): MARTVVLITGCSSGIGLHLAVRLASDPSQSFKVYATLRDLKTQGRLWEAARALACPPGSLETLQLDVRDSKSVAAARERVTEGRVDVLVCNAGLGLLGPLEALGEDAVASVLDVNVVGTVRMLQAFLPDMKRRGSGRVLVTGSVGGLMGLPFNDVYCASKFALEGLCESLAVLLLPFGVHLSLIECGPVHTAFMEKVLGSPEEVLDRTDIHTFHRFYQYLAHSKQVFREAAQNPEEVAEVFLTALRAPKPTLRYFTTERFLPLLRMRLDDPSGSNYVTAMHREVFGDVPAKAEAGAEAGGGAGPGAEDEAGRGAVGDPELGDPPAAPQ
Assay: Inhibition of 17β-HSD1 in T-47D intact cells (E1 into E2)
Assay type: cell-based
Details: T47D; Table 2 (17β-HSD1); [14C]-E1 60 nM, T-47D intact cells, 0.1 μM; read-out: Inhibition (0.1 μM)
outcome-measure: inhibition at 0.1 µM (%)
Please reply with the bare figure in % and do not write the unit itself.

Request the reported inhibition at 0.1 µM associated with C[C@]12CC[C@@H]3c4ccc(C(N)=O)cc4CC[C@H]3[C@@H]1C[C@H](Cc1cccc(C(N)=O)c1)[C@@H]2O [Compound 61]
3

Request the reported inhibition at 0.1 µM associated with CN(C)Cc1ccc2c(c1)CC[C@@H]1[C@@H]2CC[C@]2(C)[C@@H](O)[C@@H](Cc3cccc(C(N)=O)c3)C[C@@H]12 [Compound 40a]
12

Could you now look at the following compound, please?
Request the reported inhibition at 0.1 µM associated with C[C@]12CC[C@@H]3c4ccc(CN5CCCC5)cc4CC[C@H]3[C@@H]1C[C@H](Cc1cccc(C(N)=O)c1)[C@@H]2O [Compound 40c]
1

Source of measurements: patent US11072632B2
